# Tested on: Hela
# TEST NAME: Cytotoxicity (XTT) on Hela cells
# Format: cell-based, human
# ASSAY CONTEXT: 100 μM, 72 h
ENDPOINT: Cell viability HeLa S3 100 μM (% vs. control)
Answer with a number only, understood to be in % vs. control.

`COC(=O)[C@H](CC(C)C)NC(=O)CNC(=O)C(=O)[C@@H]1CCCN1C(=O)CNC(=O)c1ccnc2ccccc12` yielded Cell viability HeLa S3 100 μM of 106

`O=C(NCc1ccccc1)C(=O)[C@@H]1CCCN1C(=O)CNC(=O)c1ccnc2ccccc12` yielded Cell viability HeLa S3 100 μM of 96

`COc1ccc(CCNC(=O)C(=O)[C@@H]2CCCN2C(=O)CNC(=O)c2ccnc3ccccc23)cc1OC` yielded Cell viability HeLa S3 100 μM of 86

`O=C(CNC(=O)C(=O)[C@@H]1CCCN1C(=O)CNC(=O)c1ccnc2ccccc12)NCc1ccccc1` yielded Cell viability HeLa S3 100 μM of 96

`COC(=O)[C@H](Cc1ccccc1)NC(=O)CNC(=O)C(=O)[C@@H]1CCCN1C(=O)CNC(=O)c1ccnc2ccccc12` yielded Cell viability HeLa S3 100 μM of 100

`CC(C)NC(=O)C(=O)[C@@H]1CCCN1C(=O)CNC(=O)c1ccnc2ccccc12` yielded Cell viability HeLa S3 100 μM of 105

The origin of these recorded values is patent US12371416B2.
